Reference for the values: the supplement of paper PMC4466140

Parameter SPOT peptide array binding signal intensity: see the listing below.
# TGT: ScMyo5
# ASSAY_PROTOCOL: SPOT peptide array binding signal intensity (averaged, normalized) (arbitrary units (background-subtracted, floor 0; scale differs between SH3 domains)); higher = stronger binding of the SH3 domain to the peptide

The examples below pair each entry with its known result.
[[record]]
binder = "LASNSPPVYPKRIRH"
measurement = "≤ 0"

[[record]]
binder = "SAPDIPPRSPNRNAH"
measurement = "≤ 0"


// Input: AERNYAPRLPRRETS . Output its SPOT peptide array binding signal intensity only.
≤ 0
